Attribution: patent US20150353909

- system tested: purified recombinant linear UB tetramers
measured parameter: in vitro deubiquitylation activity

Field: example entries. Status: answers known.
protein	in vitro deubiquitylation activity
GST-OTU10 (protein) MVSHEENTSIVEWFLGPHPYTYPPYGIEMIHEDDEVAVAHHHHHHQSGEYYREYEDHRSSDVDNDEIIARTLQDDFLQLEIAESNDYSHQNQQQQHQQEGYTNNYSNNNNGYAWNDQSPAVDYSSEWIGNDNDQDGRSDDSVNVFSCSSPSDTDEYVYSWESDQCDADGEFGRRLNQMVPIPYIPKINGEIPPEEEAVSDHERLRNRLEMFDFTEVKVPGDGNCQFRALADQLYKTADRHKHVRRQIVKQLKSRPDSYQGYVPMDFSDYLRKMSRSGEWGDHVTLQAAADAYRVKIVVLTSFKDTCYIEILPTSQESKGVIFLSFWAEVHYNAIYLNRDTSETELQRKRKWWRFGN	-
His-tagged OTU9 (protein) MGYEPDPDALRWGLHDLEVCTLTNAGSCSSVTRYESGGGGTQGYVREGYNQPVTGYVDNDAVIAQFYQDELSRVARAEASGINSLSPTSVVAQDWPHPHQGQENQGEAIDITQESDILHNHNGNMEDKNVARIRFEGGQSSPSRDDDSVCSVEIEEESWSEVGKRLNQMIPIAHVPKINGELPSEDEQISDHERLFQRLQLYGLVENKIEGDGNCQFRSLSDQLYRSPEHHNFVREQVVNQLAYNREIYEGYVPMAYNDYLKAMKRNGEWGDHVTLQAAADLFGVRMFVITSFKDTCYIEILPHFQKSNRLICLSFWAEVHYNSIYPEGELPIPEGKKKKKYWVF	-
His-tagged OTU3 (protein) MELKSSSNNNILEQLRNGFARFELVSSPTASVSDSISSTSLPASFISTTKGNSYVFFARINSSMNRSPAAKKVEKYAVDRVKGDGRCLFRALVKGMAFNKGITLNPQRERDDADELRMAVKEVICNDPKEREKYKEALVAITVDESLKRFCQRIGRHDFWGGESELLVLSKLCKQPIIVYIPEHEHGRGGGYGPGFIPIQEYGSEFRGGWGKGKTNKNVVRLLYSGRNHYDLLR	+
His-tagged OTU7a (protein) MAKTKQQKSKPKKQPHQKQGKDCDLSQFRAQLDALGLKIIQVTADGNCFFRAIADQLEGNEDEHNKYRNMIVLYIVKNREMFEPFIEDDVPFEDYCKTMDDDGTWAGNMELQAASLVTRSNICIHRNMSPRWYIRNFEDTRTRMIHLSYHDGEHYNSVRSKEDACGGPARPVVIEADAKVSAASKQAKATESKSKNKADKCHVNAGAIKVVMSGSCCDNTEKAEQVLLQVNGDVDAAIEFLIADQGMESLTENDTETASASDTINPKHASDSPMENTEQAREELIEEESASGNNSETVQAKCTTQTDDKKIPRNKTCPCGSKKKYKSCCGTATGRSSVKLLVSQTMESKKGRKNLRRGTSNEVEANAPDVGALCI	-

Task: # in vitro deubiquitylation activity lookup, item GST-OTU4c (protein) MMICYSPITTCSRNAISIKRHLGSRLYGVVAHGSSKFSCYSLLSGLSRRHYTGFRVSVSNRPSSWHDKGLFGFAYTGVIVSLLVCYSSTSQSAYADSSRDKDANNVHHHSSDGKFHNGKRVYTDYSIIGIPGDGRCLFRSVAHGFCLRSGKLAPGEKMQRELADELRTRVADEFIQRRQETEWFVEGDFDTYVRQIRDPHVWGGEPELFMASHVLQMPITVYMKDDKAGGLISIAEYGQEYGKDDPIRVLYHGFGHYDALLLHESKASIPKSKL
Output: ++
